Assay: compound binding in COS7 lysate, probe aLAP1, primary screen, cell lysate, small-molecule microarray (AID 1124);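 note: lysate comes from COS7 cells expressing LAP1 and is applied at 0.3 µg/mL; score merges spot fluorescence near 667 nm with signal-to-noise over triplicate slides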
Conditions: probe aLAP1, fluorescence, higher = more signal

{"columns": ["molecule", "composite z-score"],
 "data": [
  ["COc1cccc(C(=O)O[C@H]2CC[C@]3(C)C4=C(CCC3C2(C)C)[C@]2(C)CC[C@H]([C@H](C)CCCC(C)C)[C@@]2(C)CC4)c1 (some centres not stated)", -0.147],
  ["CCOC(=O)C1=CC[C@@H](c2ccccc2Cl)N(S(=O)(=O)c2ccc(C)cc2)C1", 0.837],
  ["CCOC(=O)C[C@H]1[C@H](OC(=O)c2ccccc2-c2ccccc2)[C@@H](NC(=O)Cc2ccc(OC)cc2)c2cc(OCCCO)ccc2N1C(=O)c1ccccc1", -0.0152],
  ["C=C(COC)/C(=C/C[C@H](OC(=O)c1ccncc1)c1cccc(OCCO)c1)c1cc(C(=O)OC)ccc1OC", 0.343],
  ["C=C[C@@H](COC(C)=O)N(Cc1ccc([N+](=O)[O-])cc1)S(=O)(=O)c1ccc(Br)cc1", 0.442],
  ["CCCCCN1CC=CC23O[C@@H]4/C=C\\CCC(C)OC(=O)C4[C@H]2C(=O)N(CCCCCO)[C@@H]3C1=O (some centres not stated)", -0.29],
  ["O=C1OCCC=C[C@H]2OC34C=CCN(Cc5ccccc5)C(=O)[C@H]3N(CCCO)C(=O)[C@@H]4C12 (some centres not stated)", -0.322]
]}

----------
Test system: wheat germ agglutinin (Triticum aestivum), Alexa647-labelled
Assay: wheat germ agglutinin binders on compound microarrays, profiling panel, artefact control for SMM control-protein annotation, biochemical, small-molecule microarray, 635/667 nm fluorescence (AID 1140);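 note: score merges 667 nm feature emission with signal to noise over triplicate slides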
Conditions: WGA-A647 binding, 635 nm fluorescence, higher = more signal

{"columns": ["compound", "composite z-score"],
 "data": [
  ["CC(C)C[C@@H]1NC(=O)[C@@H]2C[C@H](C(=O)NCCCCCC[N+](C)(C)C)[C@H](c3ccc(O)cc3)N2C1=O", 0.56],
  ["[N-]=[N+]=Nc1ccccc1[C@H]1OC(c2ccc(OCCCO)cc2)=N[C@@]1(CCS(=O)(=O)c1ccccc1)C(=O)O", 0.85],
  ["CCOC(=O)C[C@H]1[C@H](OC(=O)c2ccc(-c3ccccc3)cc2)[C@@H](NC(=O)c2ccc3ccccc3c2)c2cc(OCCCO)ccc2N1C(=O)Cc1ccc(OC)cc1", -0.006],
  ["CCOC(=O)C1=CCC(c2ccc([N+](=O)[O-])cc2)N(S(=O)(=O)c2ccc(C)cc2)C1 (stereo unspecified)", 0.44],
  ["C=C[C@H](COC(C)=O)N(Cc1ccc(OC(C)=O)c(OC)c1)S(=O)(=O)c1ccc(Br)cc1", 0.492],
  ["[N-]=[N+]=NCc1ccccc1[C@H]1OC(c2ccc(OCCCO)cc2)=N[C@@]1(CCS(=O)(=O)c1ccccc1)C(=O)N1CCOCC1", 1.35]
]}

----------
Assay: Plasmodium falciparum growth inhibition, primary screen, strain 3D7, DAPI fluorescence, 100 nL (AID 1184);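 note: parasites grown inside human red blood cells in medium with human serum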
Conditions: P. falciparum 3D7 growth, 3 d, higher = more signal
Assign Satisfied whenever z-score does not fall below -1; assign Not satisfied whenever it does.

{"columns": ["compound", "classification"],
 "data": [
  ["COCCOC(=O)N1C(=O)[C@@]2(c3cc(C#CCNC(N)=O)ccc31)[C@H](C(=O)N1CCc3cc(OC)c(OC)cc3C1)[C@H]1C(=O)O[C@H](c3ccccc3)[C@H](c3ccccc3)N1[C@@H]2c1ccc(OCCO)cc1", "Not satisfied"],
  ["COC(=O)[C@@]1(Cc2ccc(F)cc2)[C@H]2c3cc(C(=O)N4CCCC4)n(Cc4cccc5ccccc45)c3C[C@H]2CN1C(=O)c1ccccc1", "Not satisfied"],
  ["O=C1c2ccccc2[C@@]2(Cc3ccccc3N(Cc3ccccc3)C2=O)[C@H](c2ccc(CO)cc2)N1C1CCCCC1", "Satisfied"],
  ["O=C1O[C@H](c2ccccc2)[C@H](c2ccccc2)N2[C@H]1[C@@H](C(=O)O)[C@]1(C(=O)Nc3ccc(C#CC4=CCCCC4)cc31)[C@H]2c1ccc(OCCO)cc1", "Satisfied"],
  ["C=CC(COC(C)=O)NS(=O)(=O)c1ccc(Br)cc1 (configuration not stated)", "Satisfied"],
  ["CCOC(=O)C1=CC[C@@H](c2ccccc2Cl)N(S(=O)(=O)c2ccc(C)cc2)C1", "Not satisfied"]
]}

----------
Assay: basal HepG2 mitochondrial membrane potential changes, profiling panel, cell-based, JC-1 fluorescence, 24 h, 100 nL compound (AID 1167); note: test concentration not given here
Details: higher = more signal
Classify as follows. Reported z-score greater than or equal to -0.6: True. Reported z-score below: False.

{"columns": ["molecule", "classification"],
 "data": [
  ["C=C[C@H](C)[C@@H](O)c1ccc(O)c2ccccc12", "False"],
  ["Cc1ccccc1C(O)C1C=CC2C(=O)N(C)C(=O)C2N1Nc1ccccc1 (stereo unspecified)", "False"],
  ["[N-]=[N+]=NCc1ccccc1[C@@H]1OC(c2ccc(OCCCO)cc2)=N[C@]1(Cc1ccccc1N=[N+]=[N-])C(=O)NCc1ccccc1", "True"],
  ["CO[C@H]1O[C@H](CO)[C@@H](OC(=O)Nc2ccc(Oc3ccccc3)cc2)[C@H](OC(=O)Nc2ccccc2)[C@H]1OC(=O)Nc1ccccc1", "False"],
  ["Cc1cc(C)cc(N2C(=O)CS(=O)(=O)C2c2cccc([N+](=O)[O-])c2)c1 (stereo unspecified)", "True"],
  ["O=C(O)[C@@]1(Cc2ccccc2)N=C(c2ccc(OCCCO)cc2)O[C@H]1c1ccccc1", "True"],
  ["O=C1OCCC=C[C@H]2OC34C=CCN(Cc5ccccc5)C(=O)[C@H]3N(CCCCCO)C(=O)[C@@H]4C12 (stereo partly specified)", "True"],
  ["CCOC(=O)C[C@H]1[C@H](OC(=O)c2ccccc2-c2ccccc2)[C@@H](NC(=O)Cc2ccc(OC)cc2)c2cc(OCCCO)ccc2N1C(=O)c1ccccc1", "True"],
  ["COC(=O)[C@@]1(Cc2ccccc2)[C@H]2c3cc(C(=O)N4CCCC4)n(Cc4ccc(C)o4)c3C[C@H]2CN1C(=O)c1ccccc1", "True"],
  ["CCOC(=O)C1=CC[C@@H](c2ccccc2)N(S(=O)(=O)c2ccc(C)cc2)[C@H]1C(=O)OCC", "True"],
  ["O=C1O[C@H](c2ccccc2)[C@H](c2ccccc2)N2[C@H]1[C@@H](C(=O)NC[C@H](O)c1ccccc1)[C@]1(C(=O)Nc3ccc(C#CCCO)cc31)[C@H]2c1ccc(O)cc1", "False"],
  ["[N-]=[N+]=NCc1ccccc1[C@@H]1OC(c2ccc(OCCCO)cc2)=N[C@]1(Cc1ccccc1)C(=O)N1CCCCC1", "True"],
  ["CCOC(=O)C1=CCC(c2ccc([N+](=O)[O-])cc2)N(S(=O)(=O)c2ccc(C)cc2)C1 (stereo unspecified)", "True"],
  ["C=CC[C@@H](OC(=O)Nc1ccc(OC)cc1)c1ccc(O)c2ccccc12", "False"],
  ["COC(=O)[C@@]1(Cc2ccc(F)cc2)[C@H]2c3cc(C(=O)N4CCCC4)n(Cc4cccc5ccccc45)c3C[C@H]2CN1C(=O)c1ccccc1", "True"]
]}

----------
Recorded composite z-score for the following compounds
Target: Torsin-1A-interacting protein 2 (Homo sapiens) (UniProt Q8NFQ8)
Sequence (Q8NFQ8 whole entry, looked up): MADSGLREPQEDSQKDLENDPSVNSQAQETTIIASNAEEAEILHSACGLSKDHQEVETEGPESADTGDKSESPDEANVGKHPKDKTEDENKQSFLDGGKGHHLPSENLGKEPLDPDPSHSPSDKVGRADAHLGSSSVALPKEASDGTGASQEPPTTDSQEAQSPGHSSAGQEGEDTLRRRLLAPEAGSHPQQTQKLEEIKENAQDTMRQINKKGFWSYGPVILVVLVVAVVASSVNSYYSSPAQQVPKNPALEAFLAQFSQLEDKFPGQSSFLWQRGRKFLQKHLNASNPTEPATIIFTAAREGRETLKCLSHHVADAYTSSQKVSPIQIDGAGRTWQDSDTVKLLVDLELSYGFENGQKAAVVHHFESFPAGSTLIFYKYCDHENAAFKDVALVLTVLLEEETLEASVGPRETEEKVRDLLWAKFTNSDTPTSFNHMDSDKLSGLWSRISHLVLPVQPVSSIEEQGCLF
Test: LULL1 binders on small-molecule microarray, primary screen, cell lysate, human LULL1 lysate, 635/667 nm fluorescence (AID 1092);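 note: probe is lysate of COS7 cells overexpressing human LULL1; score merges per-feature 667 nm fluorescence with signal-to-noise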
Conditions: hLULL1 lysate binding, 635 nm fluorescence, higher = more signal

{"columns": ["compound", "composite z-score"],
 "data": [
  ["O=C1C2C=CC(C(O)c3ccc(B(O)O)cc3)N(Nc3ccccc3)C2C(=O)N1c1ccccc1 (centres undefined)", 0.935],
  ["CCOC(=O)C1=CCC(C(C)(C)C)N(S(=O)(=O)c2ccc(C)cc2)C1 (centres undefined)", 3.3],
  ["Cc1ccc(S[C@]2(C(=O)NCC(C)C)CC(=O)N(Cc3ccccc3Cl)[C@@H]2c2ccc(CO)cc2)cc1", 0.294],
  ["C=CCNC(=O)[C@@H]1[C@H]2C(=O)O[C@H](c3ccccc3)[C@H](c3ccccc3)N2[C@H](c2ccc(OCCO)cc2)[C@@]12C(=O)Nc1ccccc12", 2.46]
]}

----------
Experiment: HepG2 liver cancer cell viability effects, profiling panel, resazurin fluorescence, 24 h, PK04 Diversity Set (AID 1172); note: test concentration not given here
Details: higher = more signal
z-score class ranges: 1 (below -0.5), 2 (-0.5 to below 0.04), 3 (0.04 or more)

{"columns": ["molecule", "classification"],
 "data": [
  ["COCCOC(=O)N1C(=O)[C@@]2(c3cc(C#CCCO)ccc31)[C@H](c1ccccc1OCCO)N1[C@H](c3ccccc3)[C@H](c3ccccc3)OC(=O)[C@H]1[C@@H]2C(=O)N1CCN(c2ncccn2)CC1", 2],
  ["COC(=O)c1ccc(OC)c(/C=C\\CC(OC(C)=O)c2ccccc2)c1 (stereo unspecified)", 2],
  ["O=C(O)[C@@]1(Cc2ccccc2)N=C(c2ccc(OCCCO)cc2)O[C@H]1c1ccccc1", 3],
  ["CCOC(=O)C[C@H]1[C@H](OC(=O)c2ccc(-c3ccccc3)cc2)[C@@H](NC(=O)c2ccc(-c3ccccc3)cc2)c2cc(OCCCO)ccc2N1C(=O)Cc1ccc(OC)cc1", 2],
  ["CCCCCN1CC=CC23O[C@@H]4/C=C\\CCC(C)OC(=O)C4[C@H]2C(=O)N(CCCCCO)[C@@H]3C1=O (stereo partly specified)", 3],
  ["O=C1OCCC=C[C@H]2OC34C=CCN(c5ccc6ccccc6c5)C(=O)[C@H]3N(CCCCCO)C(=O)[C@@H]4C12 (stereo partly specified)", 3],
  ["CCOC(=O)C[C@H]1[C@H](OC(=O)c2ccc(-c3ccccc3)cc2)[C@@H](NC(=O)Cc2ccc(OC)cc2)c2cc(OCCCO)ccc2N1C(=O)c1ccc2ccccc2n1", 2],
  ["COc1ccc(C#Cc2ccc3c(c2)[C@]2(C(=O)N3)[C@H](C(=O)NC[C@H](O)c3ccccc3)[C@H]3C(=O)O[C@H](c4ccccc4)[C@H](c4ccccc4)N3[C@@H]2c2ccc(OCCO)cc2)cc1", 1],
  ["C=CC[C@@H](OC(=O)Nc1ccc(OC)cc1)c1ccc(O)c2ccccc12", 1],
  ["COc1ccc(C(O)C2C=CC3C(=O)N(C)C(=O)C3N2Nc2ccccc2)cc1OCc1ccccc1 (stereo unspecified)", 3],
  ["COC(=O)[C@@]1(Cc2ccc(OC)cc2)[C@H]2c3cc(C(=O)N(C)C)n(Cc4c(OC)[nH]cc(C)c4=O)c3C[C@H]2CN1C(=O)c1ccccc1", 1]
]}
